Source listed as ChEMBL document CHEMBL3988442.

Tested on: Wolbachia pipientis
Test: Anti-Wolbachia Cell-Based Screen
Format: functional
Design: scale not given: in the data most compounds retested in dose-response had high values
Conditions: 5 µM
Out of some 48,000 compounds screened, about 13,000 (27%) showed an effect of 50% or more. This is one part of the list.
measured quantity: Percent Effect (%)
Your answer should be a plain number; it is taken to be in %.

Any idea what its Percent Effect is? The compound is O=C1CSC(c2ccc(O)c(Cl)c2)c2c(n(C3CCOCC3)[nH]c2=O)N1 (stereo not given) 12.23

Any idea what its Percent Effect is? The compound is Cc1nc(C)c(CC(=O)N2C[C@@H]3CC[C@H](C2)N(CC2CCC2)C3)c(=O)[nH]1 -4.383

====

Tested on: Wolbachia pipientis
Assay: Anti-Wolbachia Cell-Based Screen
Format: functional
Design: scale not given: in the data most compounds retested in dose-response had high values
Conditions: 5 µM
Among all 48,000 compounds or so, about 13,000 (27%) showed an effect of 50% or more. This is one part of the list.
# label = t if Percent Effect >= 10% else f

Reference set, count: 6
1) CC(C)CN1CCC2(CC1)CN(C(=O)C(C)C)C2.O=C(O)C(F)(F)F :: f
2) O=C(Nc1cccnc1)[C@H]1C[C@@H]2CCN(Cc3nccs3)C[C@@H]2O1.O=C(O)C(F)(F)F.O=C(O)C(F)(F)F :: t
3) O=C(Nc1cccnc1)[C@@H]1C[C@H]2OCC[C@H]2N(Cc2ccsc2)C1.O=C(O)C(F)(F)F.O=C(O)C(F)(F)F :: f
4) CCCN1CC[C@@H]2OC[C@H](C(=O)Nc3cccnc3)C[C@@H]2C1.O=C(O)C(F)(F)F.O=C(O)C(F)(F)F :: t
5) O=C(O)C(F)(F)F.O=C1[C@H]2CN(Cc3ccccc3)C[C@H]2CN1c1cncnc1 :: f
6) Cc1noc(C)c1CN1CCO[C@H]2CN(CC3CC3)C[C@H]21.O=C(O)C(F)(F)F.O=C(O)C(F)(F)F :: f

Tell me whether Percent Effect is at least 10% here: CCOCCN1C[C@H](C(=O)Nc2cccnc2)[C@@H]2CCO[C@@H]2C1.O=C(O)C(F)(F)F.O=C(O)C(F)(F)F f

Tell me whether Percent Effect is at least 10% here: O=C(Nc1cccnc1)[C@H]1COC[C@H]2CN(C3CCCC3)C[C@H]21.O=C(O)C(F)(F)F.O=C(O)C(F)(F)F t

Tell me whether Percent Effect is at least 10% here: CN1CC[C@@H]2OC[C@H](C(=O)N(C)Cc3ccccn3)C[C@@H]2C1.O=C(O)C(F)(F)F.O=C(O)C(F)(F)F t

Tell me whether Percent Effect is at least 10% here: COCCN1C(=O)CC[C@@H]2[C@@H]1CCN2Cc1c(C)noc1C.O=C(O)C(F)(F)F t

Tell me whether Percent Effect is at least 10% here: CCOC[C@@H]1CC[C@H]2[C@H](CCN2Cc2c(C)noc2C)O1.O=C(O)C(F)(F)F f

Tell me whether Percent Effect is at least 10% here: CCCN1CCN(C(=O)Cc2nc(-c3ccco3)oc2C)CC1 f

Tell me whether Percent Effect is at least 10% here: OCC1N(Cc2ccco2)[C@H]2CC[C@]1(O)CC2 (stereo partly specified) t

Tell me whether Percent Effect is at least 10% here: CC(C)CNC(=O)[C@H]1C[C@@H]2CN(Cc3cccnc3)C[C@H]1O2.O=C(O)C(F)(F)F.O=C(O)C(F)(F)F f

Tell me whether Percent Effect is at least 10% here: CC(C)N1CC[C@@H]2OC[C@H](C(=O)Nc3cccnc3)C[C@@H]2C1.O=C(O)C(F)(F)F.O=C(O)C(F)(F)F t

Tell me whether Percent Effect is at least 10% here: CN1CCN(Cc2ccco2)Cc2cccnc21 t
